Tested on: HCV genotype 1a subgenomic replicon with NS3 resistance mutation R155K
Assay procedure: HCV replicon RNA replication assay, R155K 1a
Type: cell-based, HCV genotype 1a (strain H77), Huh-7 cells
Measurement context: Hepatitis C virus, Huh-7, 72 h, read-out: R155K 1a Ec50 (nM)
# maps each entry to its EC50
Your answer is read as nM, so omit the unit and give the number.

Some solved entries appear below for comparison.
COc1c(F)ccc2c(O[C@@H]3C[C@H]4C(=O)N[C@]5(C(=O)NS(=O)(=O)C6(C)CC6)C[C@H]5/C=C\CCCCC[C@H](NC(=O)c5ccn(CCF)n5)C(=O)N4C3)cc(OC(C)C)nc12 [Compound 1021] | 1.9
COc1ccc2c(O[C@@H]3C[C@H]4C(=O)N[C@]5(C(=O)NS(=O)(=O)C6CC6)C[C@H]5/C=C\CCCCC[C@H](NC(=O)c5ccc(C(C)(C)O)s5)C(=O)N4C3)cc(OC(C)C)nc2c1C [Compound 1014] | 8.5

State measured EC50 of the molecule COc1ccc2c(O[C@@H]3C[C@H]4C(=O)N[C@]5(C(=O)NS(=O)(=O)C6(C)CC6)C[C@H]5/C=C\CCCCC[C@H](NC(=O)c5ccn(C)n5)C(=O)N4C3)cc(OC(C)C)nc2c1C [Compound 1007] with HCV genotype 1a subgenomic replicon with NS3 resistance mutation R155K.
1.7

Provide the reported EC50 (system: HCV genotype 1a subgenomic replicon with NS3 resistance mutation R155K) for CNC(=O)Cn1ccc(C(=O)N[C@H]2CCCCC/C=C\[C@@H]3C[C@@]3(C(=O)NS(=O)(=O)C3(C)CC3)NC(=O)[C@@H]3C[C@@H](Oc4cc(OC(C)C)nc5c(C)c(OC)ccc45)CN3C2=O)n1 [Compound 1019]
1.6

Under HCV genotype 1a subgenomic replicon with NS3 resistance mutation R155K: report EC50 of COc1ccc2c(O[C@@H]3C[C@H]4C(=O)N[C@]5(C(=O)NS(=O)(=O)C6(C)CC6)C[C@H]5/C=C\CCCCC[C@H](NC(=O)c5ccn(CC(F)(F)F)n5)C(=O)N4C3)cc(OC(C)C)nc2c1C [Compound 1005] .
0.85

---

# EC50 listing for each entry below
Tested on: HCV genotype 1a subgenomic replicon with NS3 resistance mutation D168V
Assay procedure: HCV replicon RNA replication assay, D168V 1a
Assay type: cell-based, HCV genotype 1a (strain H77), Huh-7 cells
Measurement context: Hepatitis C virus, Huh-7, 72 h, read-out: D168V 1a Ec50 (nM)
Report only the number, with the unit nM understood.

// known answers, use as guide
COc1ccc2c(O[C@@H]3C[C@H]4C(=O)N[C@]5(C(=O)NS(=O)(=O)C6(C)CC6)C[C@H]5/C=C\CCCCC[C@H](NC(=O)c5ccn(CC(=O)N(C)C)n5)C(=O)N4C3)cc(OC(C)C)nc2c1C | 2.7
Cc1c(F)ccc2c(O[C@@H]3C[C@H]4C(=O)N[C@]5(C(=O)NS(=O)(=O)C6(C)CC6)C[C@H]5/C=C\CCCCC[C@H](NC(=O)c5ccn(C)n5)C(=O)N4C3)cc(OC(C)C)nc12 | 6.6
COCc1ccc(C(=O)N[C@H]2CCCCC/C=C\[C@@H]3C[C@@]3(C(=O)NS(=O)(=O)C3CC3)NC(=O)[C@@H]3C[C@@H](Oc4cc(OC(C)C)nc5c(C)c(OC)ccc45)CN3C2=O)s1 | 7.2

Quick one: give measured EC50 for COc1ccc2c(O[C@@H]3C[C@H]4C(=O)N[C@]5(C(=O)NS(=O)(=O)C6(C)CC6)C[C@H]5/C=C\CCCCC[C@H](NC(=O)c5ccn(C)n5)C(=O)N4C3)cc(OCC(F)(F)F)nc2c1C
9.5

Read the entry COc1ccc2c(O[C@@H]3C[C@H]4C(=O)N[C@]5(C(=O)NS(=O)(=O)C6CC6)C[C@H]5/C=C\CCCCC[C@H](NC(=O)c5ccn(CC(F)F)n5)C(=O)N4C3)cc(OC(C)C)nc2c1C and write its reported EC50.
6.4

Write down EC50 measured for item COc1c(F)ccc2c(O[C@@H]3C[C@H]4C(=O)N[C@]5(C(=O)NS(=O)(=O)C6(C)CC6)C[C@H]5/C=C\CCCCC[C@H](NC(=O)c5ccn(CC(F)(F)F)n5)C(=O)N4C3)cc(OC(C)C)nc12
0.7

---

System: HCV genotype 1a subgenomic replicon with NS3 resistance mutation D168V
Assay procedure: HCV replicon RNA replication assay, D168V 1a
Assay type: cell-based, HCV genotype 1a (strain H77), Huh-7 cells
Measurement context: Hepatitis C virus, Huh-7, 72 h, read-out: D168V 1a Ec50 (nM)
Mark True only when EC50 stays strictly below 4 nM. Values equal to the cut-off are False.

COc1ccc2c(O[C@@H]3C[C@H]4C(=O)N[C@]5(C(=O)NS(=O)(=O)C6(C)CC6)C[C@H]5/C=C\CCCCC[C@H](NC(=O)c5ccc(C(C)(C)O)s5)C(=O)N4C3)cc(OC(C)C)nc2c1C | True
CNC(=O)Cn1ccc(C(=O)N[C@H]2CCCCC/C=C\[C@@H]3C[C@@]3(C(=O)NS(=O)(=O)C3CC3)NC(=O)[C@@H]3C[C@@H](Oc4cc(OC(C)C)nc5c(C)c(OC)ccc45)CN3C2=O)n1 | False
COc1ccc2c(O[C@@H]3C[C@H]4C(=O)N[C@]5(C(=O)NS(=O)(=O)C6(C)CC6)C[C@H]5/C=C\CCCCC[C@H](NC(=O)c5ccn(C)n5)C(=O)N4C3)cc(OC(C)C)nc2c1C | False
COc1c(F)ccc2c(O[C@@H]3C[C@H]4C(=O)N[C@]5(C(=O)NS(=O)(=O)C6(C)CC6)C[C@H]5/C=C\CCCCC[C@H](NC(=O)c5ccn(C)n5)C(=O)N4C3)cc(OC(C)C)nc12 | True
COc1ccc2c(O[C@@H]3C[C@H]4C(=O)N[C@]5(C(=O)NS(=O)(=O)C6CC6)C[C@H]5/C=C\CCCCC[C@H](NC(=O)c5ccc(C(C)(C)O)s5)C(=O)N4C3)cc(OC(C)C)nc2c1C | False
Cc1c(O)ccc2c(O[C@@H]3C[C@H]4C(=O)N[C@]5(C(=O)NS(=O)(=O)C6(C)CC6)C[C@H]5/C=C\CCCCC[C@H](NC(=O)c5ccn(C)n5)C(=O)N4C3)cc(OC(C)C)nc12 | False

Decide: EC50 of COc1ccc2c(O[C@@H]3C[C@H]4C(=O)N[C@]5(C(=O)NS(=O)(=O)C6(C)CC6)C[C@H]5/C=C\CCCCC[C@H](NC(=O)c5cnn(C)n5)C(=O)N4C3)cc(OC(C)C)nc2c1C strictly below 4 nM?
False

Is the reported EC50 for Cc1ccc2c(O[C@@H]3C[C@H]4C(=O)N[C@]5(C(=O)NS(=O)(=O)C6(C)CC6)C[C@H]5/C=C\CCCCC[C@H](NC(=O)c5ccn(C)n5)C(=O)N4C3)cc(OC(C)C)nc2c1Br strictly below 4 nM?
True
